I'd appreciate it if you could supply Specifically cell surface bound values for the items below.
# System: PSMA(+) LNCaP cells
# TEST_METHOD_NOTES: Internalisation and cell surface binding of 68Ga-labeled compounds in LNCaP cells
# Assay type: cell-based, human
# EXPERIMENTAL_SETUP: 68Ga-labeled compounds, 30 nM, 45 min at 37° C., LNCaP cells; specific uptake by blockage with 500 μM 2-PMPA; mean ± SD (n=3)
Counter-ions that a name gives are not always drawn.
One number for each entry, in % IA/10^5 cells.

Example cases with answers are listed next.
O=C(O)CC[C@H](NC(=O)N[C@@H](CCCCNC(=O)[C@@H](Cc1c[nH]c2ccc(I)cc12)NC(=O)[C@H]1CC[C@H](CNC(=O)CN2CCN(CC(=O)O)CCN(CC(=O)O)CCN(CC(=O)O)CC2)CC1)C(=O)O)C(=O)O [Il, trifluoroacetic acid salt] :: 1.6
O=C(O)CC[C@H](NC(=O)N[C@@H](CCCCNC(=O)[C@H](Cc1ccc2ccccc2c1)NC(=O)[C@H](Cc1ccc(I)cc1)NC(=O)CN1CCN(CC(=O)O)CCN(CC(=O)O)CCN(CC(=O)O)CC1)C(=O)O)C(=O)O [In, trifluoroacetic acid salt] :: 0.4
O=C(O)CC[C@H](NC(=O)N[C@@H](CCCCNC(=O)[C@H](Cc1ccc2ccccc2c1)NC(=O)[C@H]1CC[C@H](CNC(=O)[C@H](Cc2ccc(I)cc2)NC(=O)CN2CCN(CC(=O)O)CCN(CC(=O)O)CCN(CC(=O)O)CC2)CC1)C(=O)O)C(=O)O [Im, trifluoroacetic acid salt] :: 1.6
O=C(O)CC[C@H](NC(=O)N[C@@H](CCCCNC(=O)[C@H](Cc1cccc(I)c1)NC(=O)[C@H]1CC[C@H](CNC(=O)CN2CCN(CC(=O)O)CCN(CC(=O)O)CCN(CC(=O)O)CC2)CC1)C(=O)O)C(=O)O [Ij, trifluoroacetic acid salt] :: 2.3

Batch request: Specifically cell surface bound for each of the following molecules.
1. O=C(O)CC[C@H](NC(=O)N[C@@H](CCCCNC(=O)[C@H](Cc1ccc(I)cc1)NC(=O)[C@H]1CC[C@H](CNC(=O)CN2CCN(CC(=O)O)CCN(CC(=O)O)CCN(CC(=O)O)CC2)CC1)C(=O)O)C(=O)O [Ik, trifluoroacetic acid salt]
2. O=C(O)CC[C@H](NC(=O)N[C@@H](CCCCNC(=O)[C@H](Cc1ccccc1I)NC(=O)[C@H]1CC[C@H](CNC(=O)CN2CCN(CC(=O)O)CCN(CC(=O)O)CCN(CC(=O)O)CC2)CC1)C(=O)O)C(=O)O [Ii, trifluoroacetic acid salt]

Response:
0.7
1.1
